Item-by-item account of pIC50
- Target of assay: HDAC1 (Homo sapiens)
- Sequence (Q13547 whole entry, species assumed): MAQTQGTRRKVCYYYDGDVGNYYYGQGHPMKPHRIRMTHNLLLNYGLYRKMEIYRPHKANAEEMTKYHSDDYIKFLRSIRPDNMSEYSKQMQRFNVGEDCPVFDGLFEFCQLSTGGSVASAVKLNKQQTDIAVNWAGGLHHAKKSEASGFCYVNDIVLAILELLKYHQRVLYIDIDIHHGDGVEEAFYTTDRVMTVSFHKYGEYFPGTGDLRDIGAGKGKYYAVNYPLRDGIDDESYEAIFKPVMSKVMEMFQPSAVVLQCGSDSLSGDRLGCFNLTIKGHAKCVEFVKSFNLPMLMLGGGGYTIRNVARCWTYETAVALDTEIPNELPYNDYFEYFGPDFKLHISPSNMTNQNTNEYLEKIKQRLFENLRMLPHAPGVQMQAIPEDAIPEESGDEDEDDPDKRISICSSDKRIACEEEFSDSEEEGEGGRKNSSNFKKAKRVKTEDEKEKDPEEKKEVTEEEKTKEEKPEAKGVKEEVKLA
pIC50: −log10 of the molar value.

The following compounds have reported results that may help.
COc1ncc(-c2nc(N3CCOCC3)nc3c(OC4CCN(c5ncc(C(=O)NO)cn5)CC4)cc(F)cc23)cc1NS(C)(=O)=O ≥ 8.00
COc1ncc(-c2nc(N3CCOCC3)nc3c(CN4CCc5cc(C(=O)NO)cc(F)c5C4)cc(F)cc23)cc1NS(C)(=O)=O 5.00 to 6.00
COc1ncc(-c2nc(N3CCOCC3)nc3c(OC4CCN(c5c(F)cc(C(=O)NO)cc5F)CC4)cc(F)cc23)cc1NS(C)(=O)=O 5.00 to 6.00
COc1ncc(-c2nc(N3CCOCC3)nc3c(CN4CCN(c5ncc(C(=O)NO)cn5)CC4)cc(F)cc23)cc1NS(C)(=O)=O 7.00 to 8.00

// switching to the query compound
**Q:** # query: pIC50 of entry `COc1ncc(-c2nc(N3CCOCC3)nc3c(CNc4ncc(C(=O)NO)cc4F)cc(F)cc23)cc1NS(C)(=O)=O`
**A:** ≥ 8.00

Hello, the source for this data is patent US20240217947A1, in case you need it.
